Values were extracted from PubChem BioAssay (EPA / NIEHS).

TARGET_ENTITY: CCAAT/enhancer-binding protein beta (Homo sapiens) (UniProt P17676)
Sequence (P17676 whole entry, looked up): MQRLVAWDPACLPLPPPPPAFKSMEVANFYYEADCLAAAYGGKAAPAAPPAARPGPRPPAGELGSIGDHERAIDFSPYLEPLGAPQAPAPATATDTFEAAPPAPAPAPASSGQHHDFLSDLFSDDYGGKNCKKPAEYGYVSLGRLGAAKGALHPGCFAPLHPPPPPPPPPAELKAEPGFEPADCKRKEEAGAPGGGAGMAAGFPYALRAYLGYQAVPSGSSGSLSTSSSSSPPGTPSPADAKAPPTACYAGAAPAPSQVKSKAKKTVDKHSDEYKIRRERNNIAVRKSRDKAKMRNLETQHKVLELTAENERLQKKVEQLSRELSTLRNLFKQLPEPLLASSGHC
TEST_SUMMARY: ATG_C_EBP_CIS: Attagene CIS-FACTORIAL HepG2 Assay for human CCAAT/Enhancer Binding Protein (C/EBP) beta (AID 2282927)
CONDITION: HepG2 Attagene cis-factorial transcription factor reporter; actives raise or lower the signal
Active and inactive are the calls of the source. Rule for the calls: active = hit-call score of the fitted dose curve at least 0.9, where 1 is the maximum; inactive = score below 0.9.
OBSERVABLE: outcome

Consider the worked cases shown below.
Cc1ccc2c(c1)OCC(=O)CO2 :: inactive
CCCCCCCC/C=C\CCCCCCCC(=O)N(C)CC(=O)O :: inactive
OCCC(O)CO (stereo unspecified) :: inactive
CCC(C)CO (stereo unspecified) :: inactive
CC1CCCCC1 :: inactive

(Q) I have this compound here, `NCC(F)(F)C(F)(F)C(F)(F)C(F)(F)C(F)(F)C(F)(F)C(F)(F)C(F)(F)F` , and I need its recorded outcome.
(A) inactive
